Where do these numbers come from? They come from the supplement of paper PMC4862054.

Test system: HDQ-P1
Assay Details: normalised response (% of control), CellTox Green; higher = less cell death (100 = DMSO, 0 = benzethonium chloride kill control)
Assay Context: incubation time: 72 h

{"columns": ["Compound", "Unit Abbreviation", "normalised response"],
 "data": [
  ["CC(C)C[C@H](NC(=O)[C@@H](COC(C)(C)C)NC(=O)[C@H](Cc1ccc(O)cc1)NC(=O)[C@H](CO)NC(=O)[C@H](Cc1c[nH]c2ccccc12)NC(=O)[C@H](Cc1cnc[nH]1)NC(=O)[C@@H]1CCC(=O)N1)C(=O)N[C@@H](CCCNC(=N)N)C(=O)N1CCC[C@H]1C(=O)NNC(N)=O [Goserelin] (100 nM)", "%", 108],
  ["CCn1c(C(=O)N(C2CC2)C2CC2)cc2c3c(ncn3C)c(Nc3cc(C)n(C)n3)nc21 (100 nM)", "%", 102],
  ["COc1ccc(S(=O)(=O)Nc2cccnc2Nc2ccc(O)cc2)cc1 [ABT-751] (10000 nM)", "%", 107]
]}
